Tested on: NCI-H226 lung
Protocol: NCI tumour cell line growth inhibition, 48 h; in the data active = GI50 below about 0.43 µM; inactive = the rest
Hi! Could you answer with just one of these? yes (active), no (inactive)

Molecule	Discrete Label
Nc1ccn(C2OC(CO)C(O)C2F)c(=O)n1 (stereo not drawn)	no
COC(=O)[C@@H](NC(=O)NC(=O)NC(=O)CI)C(C)C	no
CC(=O)N1CCN(C2=Nc3ccccc3CO2)C1=S	no
Cc1[nH]ncc1-c1cc2nc(C3CC4CCN3CC4)[nH]c(=O)c2s1 (stereo not drawn)	no
COc1cccc([C@H]2CC(=O)c3cc4c(cc3N2)OCO4)c1	yes

Outcome logged for `O=[N+]([O-])c1ccc(Nc2ccccc2-c2ccccc2)c2nonc12` in this assay:
no

Status in this test for `CCC[CH2][Sn]([CH2]CCC)([O]C(=O)c1c(F)cccc1F)[O]C(=O)c1c(F)cccc1F` ?
no

Per the records of this test, what outcome belongs to `C=CC(=O)Nc1ccc(Nc2nccc(-c3ccc(N4CCCC4)c(C#N)c3)n2)cc1` ?
no
